Target: T1, mucin domain-deleted Sudan GP (GPdMuc) (Sudan virus (SUDV), UniProt Q7T9D9 33-632)
T1 construct: also called Sudan GPdMuc; GP(S)dMuc
Assay: BLI competition on Sudan GPdMuc (lower table); competitor 16F6
% inhibition of binding: recorded values
# output: number + unit

{"Binder": "antibody 382S (antibody, V domains shown) VH: QVQLVQSGAEVKKPGSSVKVSCKASGGTFSNYGISWVRQAPGQGLEWMGRNIPIIGIANYAQKFQDRVTITADKSTSTVFMELRSLRYEDTAVYYCARDPLAARRGNWFDPWGQGTLVTVSS VL: DIQMTQSPSTLSASVGDRVTITCRASQSVSSWLAWYQQKPGKAPKLLIYDASTLQSGVPSRFSGSGSGTEFTLTISSLQPDDFATYYCQQYNSYSYTFGQGTKLEIK", "% inhibition of binding": "13.6%"}
{"Binder": "antibody 335S (antibody, V domains shown) VH: EVQLVESGGGVVQPGRSLRLSCAASGFSFSNYAMHWVRQAPGKGLEWVAVTWYDGSSKYHADSVKGRFTISRDNSKNTLYLQMNSLRAEDTAVYYCARWGMGIVASPGNVLNYYYFMDVWGQGTTVIVSS VL: SYELTQPPSVSVSPGQTARITCSGNPLPKKHTYWYQQKPGQAPVLMIYKDSERPSRIPERFSGSSSGTTVTLTISGVQAEDEADYYCQSADSTGIVVFGGGTKLTVL", "% inhibition of binding": "8.17%"}

Below: the item to evaluate.
Task: Fill in: % inhibition of binding of antibody 405S (antibody, V domains shown) VH: EVQLVESGGGLIQPGGSLRLSCAASGFTVSSHYMSWVRQAPGKGLEWVSGIYSGGRTHYADSVKGRFTISRDNSKNTLYLQMNSLRADDTAVYSCARGTLLYLYGMDVWGQGTTVTVSS VL: QSVLTQPPSVSAAPGQRVTISCTGSSSNIGAGYNVHWYQQLPGAAPKLLIYGNTNRPSGVPDRFSGSKSGTSASLAITGLQAEDEADYYCQSFDSSLSGVFGTGTKVTVL is ___
Result: 10.1%
